Tested on: SK-MEL-5 melanoma
Assay: NCI tumour cell line growth inhibition, 48 h
ENDPOINT: TGI

Input line: Consider the molecule "O=c1ccn(CC2(CO)CCCC2)c(=O)[nH]1" and give its measured TGI.
Output line: > 100 µM

Input line: Recorded TGI of "Cc1cccc(-c2[nH]ncc2-c2ccc3ncccc3n2)n1" , please.
Output line: > 18.5 µM

Input line: Given the entry "COc1ccc(/C=N/NC(=O)c2sc(=S)n(-c3ccccc3)c2N)cc1" , report its measured TGI.
Output line: > 100 µM

###

System: SK-MEL-5 melanoma
Assay: NCI tumour cell line growth inhibition, 48 h; in the data active = GI50 below about 0.43 µM; inactive = the rest
Return exactly one item of active, inactive

Here are 5 compounds together with their reported answers.
Nc1c(C(=O)c2ccc(-c3cccnc3)cc2)cnn1-c1ccc(F)cc1 : inactive
NC1=CC(=O)c2cccnc2C1=O : inactive
COC(=O)[C@@H](C)C[C@H](Cc1cn(C)c2ccccc12)NC(=O)c1csc([C@@H](C[C@H](C(C)C)N(C)C(=O)[C@@H](NC(=O)[C@H]2CCCCN2C)C(C)C)OC(C)=O)n1 : active
O=C1/C(=C\c2ccc(F)cc2)CN(C(=O)c2ccccc2)C/C1=C\c1ccc(F)cc1 : inactive
O=C(COc1ccc(/C=C2\COc3ccccc3C2=O)cc1)Nc1nccs1 : inactive

Input line: Identify the outcome logged in this assay for the compound shown: "CCOC(=O)c1ccc(Nc2sc(C(=O)c3ccc(Br)cc3)c(N)c2C#N)cc1"
Output line: inactive

Input line: Just curious, what result did CCCCCCCC/C=C/CCCCCCCC1=NC(C)(C)CN1CC(C)O (stereo not given) get here?
Output line: inactive

Input line: Outcome? "CCOC(=O)[C@@H](C)C[C@H](Cc1ccccc1)NC(=O)c1nc([C@@H](C[C@H](C(C)C)N(C)C(=O)[C@@H](NC(=O)[C@H]2CCCCN2C)C(C)C)OC(C)=O)sc1CCOCc1ccccc1"
Output line: active

Input line: Test call, this compound: "N.N.NCCCCCN.O=C([O-])CCl.O=C([O-])CCl.O=C([O-])CCl.O=C([O-])CCl.[Pt+4].[Pt+4]"
Output line: inactive

Input line: Record lookup: outcome of this test for CC[C@@H]1[C@@H](C)O[C@@](O)([C@@H](C)[C@H](O)[C@H](C)[C@H]2OC(=O)/C=C/C=C/[C@H](C)[C@@H]([C@@H](C)[C@@H](O)[C@H](C)[C@@]3(O)C[C@@H](O[C@H]4C[C@@H](O)[C@H](O)C(C)O4)[C@H](CC)[C@@H](C)O3)OC(=O)/C=C/C=C/[C@@H]2C)C[C@H]1O[C@@H]1C[C@@H](O)[C@H](O)C(C)O1 (stereo not given in full) ?
Output line: active
